Target: T1, recombinant human activated Factor VII (FVIIa) (human, UniProt P08709 61-212; P08709 213-466, ten glutamate residues of the Gla domain may be gamma-carboxylated)
T1 construct: chains tethered by a disulfide bond; also called Factor VIIa; rFVIIa
T1 sequence 1: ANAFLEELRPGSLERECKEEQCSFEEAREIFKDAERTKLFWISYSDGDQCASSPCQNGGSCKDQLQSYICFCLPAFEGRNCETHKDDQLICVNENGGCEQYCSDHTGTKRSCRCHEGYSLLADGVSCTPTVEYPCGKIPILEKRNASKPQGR
T1 sequence 2: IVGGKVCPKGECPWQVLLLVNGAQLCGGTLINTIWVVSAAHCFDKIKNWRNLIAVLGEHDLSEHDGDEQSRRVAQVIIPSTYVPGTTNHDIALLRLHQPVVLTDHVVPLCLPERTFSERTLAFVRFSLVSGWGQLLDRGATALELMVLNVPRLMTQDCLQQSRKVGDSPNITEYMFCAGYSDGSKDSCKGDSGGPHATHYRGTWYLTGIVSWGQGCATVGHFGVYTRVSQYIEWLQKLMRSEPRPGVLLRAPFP
Assay: BLI (Fortebio)
Measurement Kind: Kd
Express your answer as a number followed by its unit.

>  <Binder>
VH SEQ ID NO 602 / VL SEQ ID NO 310 (antibody, IgG4, V domains shown, humanized 11F2; IgG4 S228P/kappa) VH: QVQLQESGPGLVKPSQTLSLTCTVSGGSISSDSAWSWIRQPPGKGLEWIGYIQYSGSTNYNPSLKSRVTISVDTSKNQFSLKLSSVTAADTAVYYCARSVNYYGNSFAVGYWGQGTLVTVSS VL: EIVLTQSPATLSLSPGERATLSCRASQGISDYLAWYQQKPGQAPRLLIKYASQPATGIPARFSGSGSGTDFTLTISSLEPEDFAVYYCQNGHSFPLTFGQGTKLEIK

>  <Result>
48 nM

$$$$
>  <Binder>
VH SEQ ID NO 514 / VL SEQ ID NO 494 (antibody, IgG4, V domains shown, humanized 11F2; IgG4 S228P/kappa) VH: QVQLQESGPGLVEPSDTLSLTCAVSGYSITSDSAWSWIRQPPGKKLEWIGYIQYSGSTNYNPSLKSRVTMSRDTSKNQFSLKLSSVTALDTAVYYCARSVNYYGNSFAVGYWGQGTLVTVSS VL: EIVLTQSPATLSLSPGERATLSCRASQGVSDYLHWYQQKPGQAPRLLIKYASQPATGIPARFSGSGSGTDFTLTISSLEPEDVAVYYCQNGHSFPLTFGQGTKLEIK

>  <Result>
1.4 nM

$$$$

Then there is this binder:
# get_value(readout='Kd', item= VH SEQ ID NO 530 / VL SEQ ID NO 366 (antibody, IgG4, V domains shown, humanized 11F2; IgG4 S228P/kappa) VH: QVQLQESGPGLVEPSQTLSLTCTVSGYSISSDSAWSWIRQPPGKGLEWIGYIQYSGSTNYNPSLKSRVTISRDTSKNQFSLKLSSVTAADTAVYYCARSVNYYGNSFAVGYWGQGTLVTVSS VL: EIVLTQSPATLSLSPGERATLSCRASQGLSDYLAWYQQKPGEAPRLLIKYASQPATGIPARFSGSGSGTDFTLTISSLEPEDFAVYYCQNGHSFPLTFGQGTKLEIK )
3.2 nM
